Recorded values, source PubChem BioAssay (Tox21).

- test_summary: qHTS assay to identify small molecule antagonists of the estrogen related receptor signaling pathway with the pleiotropic PPARgamma coactivator (PGC) from Tox21 10K library (AID 1224841); also: actives are mostly falling curves and most rising ones were filed inactive; nearly all actives have a fitted effect of over 50% in size
- condition_label: PGC/ERR reporter cell line, ONE-Glo luciferase, 18 h; series mostly up to 92.4 µM
Inconclusive results are not listed. Activity calls are given as the source filed them. No rule for the calls is given here.
Possible outcomes: active, inactive

compound	label
CCCCCCCCCC#N	inactive
CCc1nnc(NS(=O)(=O)c2ccc(N)cc2)s1	inactive
CC(C)C(=O)OC/C=C/c1ccccc1	inactive
O=C1N(c2ccccc2)c2ccccc2C1(Cc1ccncc1)Cc1ccncc1	inactive
CC(C)S	inactive
CCN(CC)CC1CCCCN1CC(=O)N1c2ccccc2C(=O)Nc2cccnc21 (configuration not stated)	inactive
C[C@]12C(=O)OC(=O)[C@H]1[C@H]1C=C[C@@H]2C1	inactive
Cn1cnc2c(F)c(Nc3ccc(Br)cc3Cl)c(C(=O)NOCCO)cc21	inactive
O=C1CCCc2ccccc21	inactive
O=C1CCC(C2CCCCC2)CC1	inactive
Cc1nc(N)nc(N)c1-c1ccc(Cl)c(Cl)c1	active
Cc1ccc([N+](=O)[O-])c(N)c1	inactive
ICCc1ccccc1	inactive
O=S(=O)(O)C(F)(F)F	inactive
CCOc1ccccc1N	active
O=c1[nH]c(=O)n([C@H]2C[C@H](O)[C@@H](CO)O2)cc1C(F)(F)F	inactive
CCc1cc2cc(OC)c(OC)cc2c(Cc2ccccc2)n1	inactive
Nc1ccc(Oc2ccc(N)c(N)c2)cc1	inactive
CO[Si](C)(C)OC	inactive
C1CSCCS1	inactive
C[C@]12CCC(=O)C=C1CC[C@@H]1[C@@H]2CC[C@@]2(C)[C@H]1CC[C@]2(O)C(=O)CO	inactive
CCN1CC(CCN2CCOCC2)C(c2ccccc2)(c2ccccc2)C1=O (configuration not stated)	inactive
N#CSCC(=O)O	inactive
Cc1nc(-c2ccccn2)ncc1C(=O)Nn1cc(C)c2cc(F)ccc21	active
COc1ccccc1OCC(O)COC(N)=O (configuration not stated)	inactive
CCOc1ccc(OCC)c(Cl)c1	inactive
COc1cc2c(cc1N)oc1ccccc12	inactive
O=C(Cl)c1cccc([N+](=O)[O-])c1	inactive
CCCNC(C)C(=O)Nc1c(C)csc1C(=O)OC (configuration not stated)	inactive
CC(=O)N[C@@H](CC(C)C)C(=O)O	inactive
CC(C)(CO)[C@@H](O)C(=O)NCCC(=O)O	inactive
O=C(C(Cl)Cl)N1CCOC12CCCCC2	inactive

---

- test_summary: qHTS assay to identify small molecule HDAC inhibitors (AID 1259364);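 also: wild-type HCT-116 cells with endogenous class I/II HDAC activity; nearly all actives have a fitted effect of over 45% in size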
- condition_label: HCT-116 HDAC-Glo I/II luminescence, 2 h; series mostly up to 92.4 µM
Records with an inconclusive call do not appear. Calls of active or inactive are those of the source. The call rests on the fitted dose curve; in most records, active means well fitted inhibition curve with a large enough effect in the repeat runs; inconclusive means weak or mixed curves; inactive means flat fitted curve, though single readings scatter.
Classes used: active, inactive

compound	label
CCCCN1C[C@H](O)[C@@H](O)[C@H](O)[C@H]1CO	inactive
OCCN(CCO)CCN(CCO)CCO	inactive
C=CC(C)(O)CC/C=C(\C)CCC=C(C)C (centres undefined)	inactive
CCN[C@H]1CN(CCCOC)S(=O)(=O)c2sc(S(N)(=O)=O)cc21	inactive
C/C(=N\O)[C@@H](C)NCC(C)(C)CN[C@H](C)/C(C)=N/O	inactive
CCN(CC)CCNC(=O)COc1ccc(Cl)cc1	inactive
Cc1cc2nc(N)sc2cc1C	active
CC1(C)S[C@@H]2[C@H](NC(=O)C(C(=O)O)c3ccccc3)C(=O)N2[C@H]1C(=O)O (some centres undefined)	inactive
CNCCC(Oc1ccccc1OC)c1ccccc1 (centres undefined)	inactive
CCCCC(=O)O[C@]1(C(=O)CO)[C@H](C)C[C@H]2[C@@H]3CCC4=CC(=O)C=C[C@]4(C)[C@@]3(F)[C@@H](O)C[C@@]21C	inactive
O=C1CCCc2ccccc21	inactive
CN(CC1(C)CCCO1)S(=O)(=O)c1ccc(Cl)c(S(N)(=O)=O)c1 (centres undefined)	inactive
Cc1onc(-c2ccccc2)c1C(=O)Cl	inactive
CC1=C2[C@H](/C=C(\C)C(=O)O)CC[C@@H](C)[C@H]2CC1	inactive
CS(=O)(=O)c1ccc([C@@H](O)[C@@H](CF)NC(=O)C(Cl)Cl)cc1	inactive
CN(C)CCOc1ccccc1Cc1ccccc1	inactive
FC(F)(F)C(F)(F)C(F)(F)C(F)(F)C(F)(F)C(F)(F)C(F)(F)C(F)(F)Br	inactive
CC(C)(CO)[C@@H](O)C(=O)NCCC(=O)O	inactive
CC(C)C(=O)OCC(C)(C)C(O)C(C)C (centres undefined)	inactive

---

- target_under_test: Nuclear receptor subfamily 1 group I member 2 (Homo sapiens)
- test_summary: CYP3A4 induction through human pregnane X receptor (PXR) by small molecules, qHTS assay (AID 1346984); also: nearly all actives have a fitted effect of over 40% in size; as to activation: % is scaled to controls: 0 for no effect and ±100 for the full control effect
- condition_label: DPX-2 HepG2 PXR, CYP3A4-luciferin luminescence, 24 h; series mostly up to 46.1 µM
Results filed as inconclusive are left out. The source made the active and inactive calls. Calls follow the shape of the dose curve; as a rule, active = well fitted activation curve with a large enough effect in the repeat runs; inconclusive = weak or mixed curves; inactive = no such curve, though single readings can be large or run the other way.
Outcome codes: active, inactive

compound	label
CCc1cc(Cl)c(OC)c(C(=O)NC[C@@H]2CCCN2CC)c1O	active
COc1ccccc1OCC(O)COC(N)=O (stereo unspecified)	inactive
CCN(CC)CCOc1ccc(Cc2ccccc2)cc1	active
Cc1nnc(SCC2=C(C(=O)O)N3C(=O)[C@@H](NC(=O)Cn4cnnn4)[C@H]3SC2)s1	inactive
Cc1cc(NS(=O)(=O)c2ccc(N)cc2)nc(C)n1	inactive
CCC(=O)Nc1ccc(O)cc1	inactive
C[C@@H](N)C(=O)O	inactive
NC/C=C/C(=O)O	inactive
CN(CCCN1c2ccccc2CCc2ccccc21)CC(=O)c1ccc(Cl)cc1	active
O=C(O)[C@@H]1CSCN1	inactive
CCN(CC)CCNC(=O)COc1ccc(Cl)cc1	inactive
NCCC(O)(P(=O)(O)O)P(=O)(O)O	inactive
Cc1c(C(=O)NCCO)[n+](=O)c2ccccc2n1[O-]	inactive
C=CCc1cc(OC)c(O)c(C(=O)NCCO)c1	inactive
CCCCN1C[C@H](O)[C@@H](O)[C@H](O)[C@H]1CO	inactive
CCOC(=O)c1ccccc1O	inactive

---

- test_summary: qHTS assay to identify small molecule antagonists of the constitutive androstane receptor (CAR) signaling pathway - cell viability counter screen (AID 1224837); also: % is scaled to controls: 0 for no effect and ±100 for the full control effect; nearly all actives have a fitted effect of over 45% in size
- condition_label: HepG2-CYP2B6-hCAR viability, CellTiter-Fluor, 23 h, co-treated with 50 nM CITCO; series mostly up to 92.4 µM
Inconclusive results are not listed. Activity calls are given as the source filed them. Calls come from the whole dose curve; as a rule, active = well fitted cell-killing curve with a large enough effect in the repeat runs; inconclusive = weak or mixed curves, or effect the other way; inactive = flat fitted curve, though single readings scatter.

compound	activity change, negative = cytotoxicity
FC(F)(F)C(F)(F)C(F)(F)C(F)(F)C(F)(F)C(F)(F)C(F)(F)C(F)(F)Br	inactive
C[C@@H]1CN(c2c(F)c(F)c3c(=O)c(C(=O)O)cn(C4CC4)c3c2F)C[C@H](C)N1	2.19% [at 19 µM] (inactive)
Cc1cc2nc(N)sc2cc1C	inactive
COc1cc(C)ccc1C(C)C	inactive
COc1cc(Cl)ccc1Cl	inactive
CC(C)C(=O)OCC(C)(C)C(O)C(C)C (stereo not drawn)	inactive
O=S(=O)(O)C(F)(F)F	inactive
CCOC(=O)CS	inactive
COC(C)CCO (stereo not drawn)	inactive
CN1CCN(N)CC1	inactive
Cc1ccc([N+](=O)[O-])cc1Cl	inactive
CCCCCCCCCCCCOCCOS(=O)(=O)O	inactive
CCC(=O)O[C@]1(C(=O)SCF)[C@H](C)C[C@H]2[C@@H]3C[C@H](F)C4=CC(=O)C=C[C@]4(C)[C@@]3(F)[C@@H](O)C[C@@]21C	inactive
CN(CCCN1c2ccccc2CCc2ccccc21)CC(=O)c1ccc(Cl)cc1	inactive
CNCCC(Oc1ccccc1OC)c1ccccc1 (stereo not drawn)	inactive
CCc1nnc(NS(=O)(=O)c2ccc(N)cc2)s1	inactive
C=CC(C)(O)CC/C=C(\C)CCC=C(C)C (stereo not drawn)	inactive
CC(=O)OC(C)OC(C)=O	inactive
C1CCOC1	inactive
C[C@]12C(=O)OC(=O)[C@H]1[C@H]1C=C[C@@H]2C1	inactive
CC(C)S	inactive
Cc1ccc([N+](=O)[O-])c(N)c1	inactive
Oc1ccccc1C=NCc1ccccc1	inactive
C=CCc1cc(OC)c(O)c(C(=O)NCCO)c1	inactive
CCCNC(C)C(=O)Nc1c(C)csc1C(=O)OC (stereo not drawn)	inactive
CC(C)Nc1nc(N)nc(Cl)n1	inactive
CCCCCCCCCC#N	inactive
O=Cc1ccc(O)c(O)c1O	inactive
CCCOc1ccc2c(c1)CC[C@@H]1[C@@H]2CC[C@]2(C)C(OC)CC[C@@H]12 (stereo partly drawn)	inactive
CC1(O)CSC(C)(O)CS1 (stereo not drawn)	inactive
CCCCCOc1ccc(C2SC(=O)NC2=O)cc1OCC (stereo not drawn)	inactive
O=C1CCCCCCCCCCC(=O)OCCO1	inactive
CCN(CC)CCOc1ccc(Cc2ccccc2)cc1	inactive
COc1ccc2nc(NC(=O)Nc3ccccc3)sc2c1	inactive
COc1nc(C)nc(NC(=O)NS(=O)(=O)c2ccccc2OCCCl)n1	inactive
CC(C)=CCC[C@](C)(O)[C@@H]1CC=C(C)CC1	inactive
CC(C)OC(C)C	inactive
CCCC(CCC)(C(=O)OCC)C(=O)OCC	inactive
CCOC(=O)c1ccccc1O	inactive
NC(=O)NS(=O)(=O)c1ccc(Cl)cc1	inactive
O=C(CCCl)NCc1ccccc1	inactive
C/C(=N\O)[C@@H](C)NCC(C)(C)CN[C@H](C)/C(C)=N/O	inactive
CC(C)O	inactive
CCOC(=O)NCCC[Si](OCC)(OCC)OCC	inactive
O=C(O)C(=O)Cc1c[nH]c2ccccc12	inactive
Cn1cnc2c(F)c(Nc3ccc(Br)cc3Cl)c(C(=O)NOCCO)cc21	inactive
Cc1ncc(CO)c(CN)c1O	inactive
O=C(O)CN(CCN(CC(=O)O)CC(=O)O)CCN(CC(=O)O)CC(=O)O	-28.8% [at 19 µM] (inactive)
